Test system: A549-TP53BP1-CLTA
Assay: phenotypically active (imaging signature differs from DMSO and reproducible) at any of 0.3-9 uM (binary (1 = active, 0 = inactive)); higher = active
Details: treatment time: 24 h
Counter-ions that a name gives are not always drawn.
phenotypically active values for the compounds below.
// return a plain number; no unit text

compound	experimental.system	phenotypically active
C#CCN(C)[C@H](C)Cc1ccccc1	A549-TP53BP1-CLTA	0
CC(C)[N+](C)(CCC(C(N)=O)(c1ccccc1)c1ccccc1)C(C)C [isopropamide-iodide]	A549-TP53BP1-CLTA	0
COc1ccc2c(c1)/C(=C/c1c[nH]cn1)C(=O)N2	A549-TP53BP1-CLTA	1

Task item: Give reported phenotypically active for O=c1[nH]c2ccccc2n1C1CCN(CCCC(c2ccc(F)cc2)c2ccc(F)cc2)CC1 [pimozide] (A549-TP53BP1-CLTA)
Reply: 0

Task item: Give the observed phenotypically active of O=c1cccc2n1C[C@H]1CNC[C@H]2C1 [Cytisine nitrate hydrate] for A549-TP53BP1-CLTA.
Reply: 0

Task item: Jot down phenotypically active (A549-TP53BP1-CLTA) of COc1ccc(OC)c(C(O)C(C)N)c1 (configuration not stated) .
Reply: 0

Task item: Look up A549-TP53BP1-CLTA data: phenotypically active of COc1cc2c(c(OC)c1OC)-c1ccc(OC)c(=O)cc1[C@@H](NC(C)=O)CC2 , then report it.
Reply: 1

Task item: Given O=C(NCCN1CCC2(CC1)C(=O)NCN2c1cccc(F)c1)c1ccc(F)c(F)c1 [ML 298 hydrochloride] , report its phenotypically active on A549-TP53BP1-CLTA.
Reply: 1

Task item: Enter measured phenotypically active, system A549-TP53BP1-CLTA, for the compound shown: NCC1(CC(=O)O)CCCCC1
Reply: 0

Task item: State recorded phenotypically active with A549-TP53BP1-CLTA, entry CCN1C[C@]2(COC)CC[C@H](O)[C@@]34[C@@H]5C[C@H]6[C@H](OC(C)=O)[C@@H]5[C@](O)(C[C@@H]6OC)[C@H](C[C@H]23)[C@H]14 , no comment.
Reply: 0

Task item: Give phenotypically active for this entry on A549-TP53BP1-CLTA: C[C@H]1O[C@@H](O[C@H]2[C@@H](O)C[C@H](O[C@H]3[C@@H](O)C[C@H](O[C@H]4CC[C@@]5(C)[C@H](CC[C@@H]6[C@@H]5CC[C@]5(C)[C@@H](C7=CC(=O)OC7)[C@@H](O)C[C@]65O)C4)O[C@@H]3C)O[C@@H]2C)C[C@H](O)[C@@H]1O
Reply: 1

Task item: Look up and report phenotypically active, with A549-TP53BP1-CLTA as system, for CC[C@H]1CN2CCC1C[C@H]2[C@H](O)c1ccnc2ccc(OC)cc12 (some centres not stated) [Hydroquinine hydrobromide hydrate]
Reply: 0

Task item: Give phenotypically active only, for O=c1ccc2ccc3occc3c2o1 , using A549-TP53BP1-CLTA data.
Reply: 0

Task item: Fetch value of phenotypically active on A549-TP53BP1-CLTA for CC(C)(C)c1cc(C=C(C#N)C#N)cc(C(C)(C)C)c1O .
Reply: 1

Task item: Provide the reported phenotypically active (system: A549-TP53BP1-CLTA) for CC[C@H]1C[N@@]2CC[C@H]1C[C@H]2[C@@H](O)c1ccnc2ccc(O)cc12 [Hydrocupreine]
Reply: 0

Task item: Provide measured phenotypically active on A549-TP53BP1-CLTA for CC(C)C[C@H](CN)CC(=O)O please.
Reply: 0

Task item: Write phenotypically active of CCC1(CC)C(=O)NC(=O)N(C)C1=O ; system used: A549-TP53BP1-CLTA
Reply: 0
